Reported MIC is given for each of the following compounds.
System: Bacillus subtilis
Assay: Antibacterial activity against Bacillus subtilis by serial dilution method
Type: functional
Reported property: MIC (µg/mL)

>>> val("CC1(C)S[C@@H]2[C@H](NC(=O)[C@H](N)c3ccccc3)C(=O)N2[C@H]1C(=O)[O-].[Na+] [AMPICILLIN SODIUM]")
0.5
>>> val("Clc1cccc(-c2nn3c(-c4cccc(-c5nnc6sc(-c7cccc(Cl)c7)nn56)n4)nnc3s2)c1")
64

###

Reported MIC is given for each of the following compounds.
System: Pseudomonas aeruginosa
Assay: Antibacterial activity against Pseudomonas aeruginosa by serial dilution method
Type: functional
Reported property: MIC (µg/mL)

>>> val("c1cc(-c2nnc3sc(-c4ccncc4)nn23)nc(-c2nnc3sc(-c4ccncc4)nn23)c1")
128
>>> val("Ic1cccc(-c2nn3c(-c4cccc(-c5nnc6sc(-c7cccc(I)c7)nn56)n4)nnc3s2)c1")
64
>>> val("O=[N+]([O-])c1ccc(-c2nn3c(-c4cccc(-c5nnc6sc(-c7ccc([N+](=O)[O-])cc7)nn56)n4)nnc3s2)cc1")
128
>>> val("Cc1nn2c(-c3cccc(-c4nnc5sc(C)nn45)n3)nnc2s1")
128
>>> val("Clc1ccc(-c2nn3c(-c4cccc(-c5nnc6sc(-c7ccc(Cl)cc7)nn56)n4)nnc3s2)cc1")
32
>>> val("COc1ccc(-c2nn3c(-c4cccc(-c5nnc6sc(-c7ccc(OC)cc7)nn56)n4)nnc3s2)cc1")
128
>>> val("CC1(C)S[C@@H]2[C@H](NC(=O)[C@H](N)c3ccccc3)C(=O)N2[C@H]1C(=O)[O-].[Na+] [AMPICILLIN SODIUM]")
2
>>> val("c1cncc(-c2nn3c(-c4cccc(-c5nnc6sc(-c7cccnc7)nn56)n4)nnc3s2)c1")
128
>>> val("Clc1cccc(-c2nn3c(-c4cccc(-c5nnc6sc(-c7cccc(Cl)c7)nn56)n4)nnc3s2)c1")
64
>>> val("c1cc(-c2nnc3sc(-c4ccco4)nn23)nc(-c2nnc3sc(-c4ccco4)nn23)c1")
32
>>> val("O=[N+]([O-])c1cccc(-c2nn3c(-c4cccc(-c5nnc6sc(-c7cccc([N+](=O)[O-])c7)nn56)n4)nnc3s2)c1")
128
